The measured values listed here are drawn from patent US6841368B1.

# Tested on: levan fructotransferase from A. ureafaciens K2032
# assay info: Effect of additives on the activity of levan fructotransferase
# Type: biochemical
# stated conditions: metal ions
recorded metric: Effect on the activity of the enzyme (in words)

| molecule | value measured |
| --- | --- |
| [Cl][Fe][Cl] [FeCl2] | inhibited |
| [Cl][Hg][Cl] [HgCl2] | inhibited |
| [Cl][Mn][Cl] [MnCl2] | inhibited |

====

# System: levan fructotransferase from A. ureafaciens K2032
# assay info: Effect of additives on the activity of levan fructotransferase
# Type: biochemical
# stated conditions: additive concentration 1 mM; control = 100
Each record here notes measured Relative activity.
Report the figure in % without appending any unit label.

Below are worked cases with known answers.
| compound | target of assay | Relative activity, % |
| --- | --- | --- |
| [Cl-].[Li+] | levan fructotransferase from A. ureafaciens K2032 | 92 |
| [Cl-].[Cl-].[Zn+2] | levan fructotransferase from A. ureafaciens K2032 | 23 |
| [Cl-].[Cl-].[Mg+2] | levan fructotransferase from A. ureafaciens K2032 | 63 |
| O=C(O)CN(CCN(CC(=O)O)CC(=O)O)CC(=O)O [EDTA, reference compound] | levan fructotransferase from A. ureafaciens K2032 | 95 |
| [Cl][Hg][Cl] | levan fructotransferase from A. ureafaciens K2032 | 0 |

Query :: Report Relative activity, nothing else, for this compound: [Cl-].[K+]
Result :: 89

Query :: Report Relative activity, nothing else, for this compound: [Cl][Fe][Cl]
Result :: 4

Query :: Report Relative activity, nothing else, for this compound: [Cl][Ni][Cl]
Result :: 74

Query :: Report Relative activity, nothing else, for this compound: CCCCCCCCCCCCOS(=O)(=O)[O-].[Na+] [SDS, sodium dodecylsulfate, reference compound]
Result :: 101

Query :: Report Relative activity, nothing else, for this compound: [Cl][Mn][Cl]
Result :: 9

Query :: Report Relative activity, nothing else, for this compound: [Ca+2].[Cl-].[Cl-]
Result :: 156

Query :: Report Relative activity, nothing else, for this compound: Cl.N
Result :: 46
